- study-system: UniProt Q9Y2H9
- Sequence (Q9Y2H9 whole entry, looked up): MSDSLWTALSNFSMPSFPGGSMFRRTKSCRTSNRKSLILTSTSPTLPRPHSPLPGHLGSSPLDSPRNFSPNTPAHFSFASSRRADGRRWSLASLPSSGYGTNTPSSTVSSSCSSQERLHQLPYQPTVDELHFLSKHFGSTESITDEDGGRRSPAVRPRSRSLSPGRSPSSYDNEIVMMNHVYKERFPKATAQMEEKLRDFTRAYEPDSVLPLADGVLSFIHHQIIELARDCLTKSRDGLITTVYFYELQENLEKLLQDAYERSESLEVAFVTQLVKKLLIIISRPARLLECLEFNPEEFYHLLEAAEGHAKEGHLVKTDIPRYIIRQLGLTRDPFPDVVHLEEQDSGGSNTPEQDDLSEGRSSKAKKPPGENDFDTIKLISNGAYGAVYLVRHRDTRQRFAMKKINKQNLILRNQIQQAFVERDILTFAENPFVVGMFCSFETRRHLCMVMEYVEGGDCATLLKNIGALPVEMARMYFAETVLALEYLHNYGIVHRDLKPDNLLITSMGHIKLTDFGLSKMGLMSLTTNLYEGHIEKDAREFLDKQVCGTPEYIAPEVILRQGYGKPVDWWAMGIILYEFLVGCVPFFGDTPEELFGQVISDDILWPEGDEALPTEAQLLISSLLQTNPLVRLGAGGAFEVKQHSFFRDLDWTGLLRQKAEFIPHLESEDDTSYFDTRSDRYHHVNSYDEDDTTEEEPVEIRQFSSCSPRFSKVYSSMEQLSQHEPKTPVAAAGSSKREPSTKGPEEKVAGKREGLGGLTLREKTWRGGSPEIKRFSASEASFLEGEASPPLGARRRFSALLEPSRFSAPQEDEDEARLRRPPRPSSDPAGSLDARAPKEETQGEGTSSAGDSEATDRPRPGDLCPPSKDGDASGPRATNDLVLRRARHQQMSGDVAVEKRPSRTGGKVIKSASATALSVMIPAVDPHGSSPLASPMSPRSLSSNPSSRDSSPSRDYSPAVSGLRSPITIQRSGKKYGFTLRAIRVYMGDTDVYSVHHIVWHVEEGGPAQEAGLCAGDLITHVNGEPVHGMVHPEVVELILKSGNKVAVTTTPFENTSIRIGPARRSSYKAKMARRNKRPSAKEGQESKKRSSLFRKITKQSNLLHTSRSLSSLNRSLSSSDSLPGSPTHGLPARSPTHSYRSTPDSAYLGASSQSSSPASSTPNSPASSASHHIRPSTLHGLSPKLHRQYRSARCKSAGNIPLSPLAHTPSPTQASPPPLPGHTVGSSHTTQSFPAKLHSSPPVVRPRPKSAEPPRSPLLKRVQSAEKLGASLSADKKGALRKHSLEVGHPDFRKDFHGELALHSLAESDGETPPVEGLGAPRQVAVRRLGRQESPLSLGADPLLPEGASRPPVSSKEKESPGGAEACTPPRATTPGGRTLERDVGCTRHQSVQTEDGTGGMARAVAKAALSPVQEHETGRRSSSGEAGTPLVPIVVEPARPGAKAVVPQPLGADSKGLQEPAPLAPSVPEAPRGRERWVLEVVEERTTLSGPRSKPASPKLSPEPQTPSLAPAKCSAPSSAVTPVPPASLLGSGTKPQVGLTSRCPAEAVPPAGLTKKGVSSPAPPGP
- test-name: KINOMEscan competition binding
- condition-description: compound 10.0 µM
Exercise: for every item that follows, state its recorded kinase still bound, per cent of control.
Dear colleague, please return just the value in %, with no unit written.

Request: Please look at this compound and report its kinase still bound, per cent of control: CCN(CCO)CCCOc1ccc2c(Nc3cc(CC(=O)Nc4cccc(F)c4)[nH]n3)ncnc2c1
Result: 90

Request: Identify measured kinase still bound, per cent of control corresponding to N#Cc1cc(-c2ccnc(Nc3ccc(-n4cnc(-c5cccnc5)n4)cc3)n2)cc(N2CCOCC2)c1
Result: 100

Request: For the compound C=CC(=O)Nc1ccc(C(=O)c2sc(Nc3ccc(N4CCN(C)CC4)cc3OC)nc2N)cc1 , give its measured kinase still bound, per cent of control value.
Result: 0

Request: // Input: Cc1cn(-c2cc(C(=O)Nc3ccc(C)c(NC(=O)c4ccno4)c3)cc(C(F)(F)F)c2)cn1 . Output its kinase still bound, per cent of control only.
Result: 100

Request: Read the entry O=c1[nH]c2ccccc2n1C1CCN(Cc2ccc(-c3nc4cc5[nH]cnc5cc4nc3-c3ccccc3)cc2)CC1 and write its reported kinase still bound, per cent of control.
Result: 100

Request: Quickly give me recorded kinase still bound, per cent of control for CCc1nc(-c2cccc(C)c2)c(-c2ccnc(NC(=O)c3ccccc3)c2)s1
Result: 100

Request: Identify the reported kinase still bound, per cent of control for the following entry. CCOc1cc(N2CCC(O)CC2)ccc1Nc1ncc2c(n1)N(C)c1ccccc1C(=O)N2C
Result: 100

Request: Give a short answer stating reported kinase still bound, per cent of control for CCCS(=O)(=O)Nc1ccc(F)c(C(=O)c2c[nH]c3ncc(Cl)cc23)c1F .
Result: 100

Request: Give the reported kinase still bound, per cent of control for this compound. COc1cc2c(Nc3ccc(NC(=O)c4ccccc4)cc3)ncnc2cc1OCCCN1CCOCC1
Result: 100
